The origin of these recorded values is ChEMBL document CHEMBL1155130.

target: AT2 receptor (Sus scrofa)
pKi: −log10 of the molar value.
PROPERTY_MEASURED: pKi

{"SMILES_INPUT": "CCCCOC(=O)NS(=O)(=O)c1ccc(-c2ccccc2)cc1-c1ccc(C(=O)N(CC)CC)cc1", "pKi": 7.28}
{"SMILES_INPUT": "CCCCOC(=O)NS(=O)(=O)c1sc(CC(C)C)cc1-c1ccc(C(=O)N2CCOCC2)cc1", "pKi": 6.46}
{"SMILES_INPUT": "CCCCOC(=O)NS(=O)(=O)c1sc(CC(C)C)cc1-c1ccc(C(=O)NC(C)C)cc1", "pKi": 8.59}
{"SMILES_INPUT": "CCCCOC(=O)NS(=O)(=O)c1sc(CC(C)C)cc1-c1ccc(C(N)=O)cc1", "pKi": 6.98}
{"SMILES_INPUT": "CCCCOC(=O)NS(=O)(=O)c1sc(CC(C)C)cc1-c1ccc(CN(C)C(C)=O)cc1", "pKi": 8.06}
{"SMILES_INPUT": "CCCCOC(=O)NS(=O)(=O)c1sc(CC(C)C)cc1-c1ccc(C(=O)N2CCCCC2)cc1", "pKi": 8.49}
{"SMILES_INPUT": "CCCCOC(=O)NS(=O)(=O)c1sc(CC(C)C)cc1-c1ccc(C(=O)NC2CCCCC2)cc1", "pKi": 8.19}

I = CCCCOC(=O)NS(=O)(=O)c1ccc(Cc2ccccc2)cc1-c1ccc(C(=O)N(CC)CC)cc1
II = CCCCOC(=O)NS(=O)(=O)c1sc(CC(C)C)cc1-c1ccc(CC(=O)N(C)C)cc1
Compare reported pKi values for I and II . Which is lower? Bench note: the answer is the label of the chosen record. I
(I: 6.79, II: 8.15)

----------
pKi: −log10 of the molar value.
# pKi per entry for AT2 receptor (Sus scrofa)
PROPERTY_MEASURED: pKi

{"SMILES_INPUT": "CCCCOC(=O)NS(=O)(=O)c1ccc(Oc2ccccc2)cc1-c1ccc(C(=O)N(CC)CC)cc1", "pKi": 7.04}

A = CCCCOC(=O)NS(=O)(=O)c1sc(CC(C)C)cc1-c1ccc(C(=O)N(C)Cc2ccccc2)cc1
B = CCCCOC(=O)NS(=O)(=O)c1cc(Cc2ccccc2)ccc1-c1ccc(C(=O)N(CC)CC)cc1
Compare reported pKi values for A and B . Which is lower? Bench note: the answer is the label of the chosen record. B
(B: 6.52, A: 7.50)

----------
Listing of recorded Ki by entry.
Biological target: Type-1 angiotensin II receptor A (Rattus norvegicus, UniProt P25095)
Sequence (P25095 whole entry): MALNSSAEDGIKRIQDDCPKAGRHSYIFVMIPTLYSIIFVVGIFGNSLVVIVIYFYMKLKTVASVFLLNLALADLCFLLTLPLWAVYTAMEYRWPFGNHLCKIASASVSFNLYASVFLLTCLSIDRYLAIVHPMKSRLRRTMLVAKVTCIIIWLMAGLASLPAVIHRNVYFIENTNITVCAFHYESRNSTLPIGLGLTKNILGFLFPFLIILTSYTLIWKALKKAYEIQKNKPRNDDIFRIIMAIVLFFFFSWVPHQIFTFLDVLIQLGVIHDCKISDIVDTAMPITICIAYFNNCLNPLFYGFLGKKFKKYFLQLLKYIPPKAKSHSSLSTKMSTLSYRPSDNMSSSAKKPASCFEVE

CCCCOC(=O)NS(=O)(=O)c1ccc(Cc2ccccc2)cc1-c1ccc(C(=O)N(CC)CC)cc1 has a reported Ki of > 10 µM

CCCCOC(=O)NS(=O)(=O)c1sc(CC(C)C)cc1-c1ccc(C(=O)N(C)Cc2ccccc2)cc1 has a reported Ki of > 10 µM

CCCCOC(=O)NS(=O)(=O)c1ccc(CC(C)C)cc1-c1ccc(Cn2c(CC)nc3c(C)cc(C)nc32)cc1 has a reported Ki of 0.0021 µM

CCCCOC(=O)NS(=O)(=O)c1sc(CC(C)C)cc1-c1ccc(C(=O)N(CC)CC)cc1 has a reported Ki of > 10 µM

CCCCOC(=O)NS(=O)(=O)c1sc(CC(C)C)cc1-c1ccc(C(=O)N2CCCC2)cc1 has a reported Ki of > 10 µM

CCCCOC(=O)NS(=O)(=O)c1sc(CC(C)C)cc1-c1ccc(Cn2c(CC)nc3c(C)cc(C)nc32)cc1 has a reported Ki of 0.0011 µM

CCCCOC(=O)NS(=O)(=O)c1ccccc1-c1ccc(C(=O)N(CC)CC)cc1 has a reported Ki of > 10 µM

CCCCOC(=O)NS(=O)(=O)c1cc(Cc2ccccc2)ccc1-c1ccc(C(=O)N(CC)CC)cc1 has a reported Ki of > 10 µM
